Source listed as PubChem BioAssay (NCI).

Test system: MOLT-4 leukemia
Assay: NCI tumour cell line growth inhibition, 48 h
outcomeMeasure: TGI

Need TGI, item COC1(OC)CCCCC2c3cccc(OC(C)=O)c3C21OC(C)=O (stereo not drawn)
> 100 µM

Now give it for O=c1[nH]nc(-c2ccccc2)c2[nH]c(-c3ccccc3)cc12 too.
> 100 µM

Try this molecule next: COc1c(C)c2nc3ccccc3[nH]c2c2c(=O)ccnc12
> 100 µM

* * *

Tested on: MALME-3M melanoma
Assay: NCI tumour cell line growth inhibition, 48 h
Provide the recorded TGI for the entries that follow.

Look at this compound and give its reported TGI. CCCCN=C(NC#N)NCCCC
> 100 µM

Then CC1(C)CNC(=O)C2(C=NC(C)(C)CNC(=O)C3(C=N1)CCCO3)CCCO2 (centres undefined) ?
> 10 µM

Also, Cc1cccc(C)c1NC(=O)C(=O)C1C(=O)NC(=O)NC1=O please.
> 100 µM

Follow-up entry: O=C(c1ccccc1)c1nnc(C(=O)c2ccccc2)nn1
> 344 µM

Thanks! And CC1(C(=O)O)CCCC1C(=O)O (centres undefined) ?
> 100 µM

Also COc1cc(CN2CCCCC2)cc2cc(C(=O)O)c(=O)oc12 ?
> 100 µM

Now the compound NC(CCC(=O)NC(CSSCCCCS(=O)O)C(=O)NCC(=O)O)C(=O)O (centres undefined)
> 100 µM

# repeat for COc1ccc2cc(NC(=O)N/N=C\c3ccc(Cl)cc3)ccc2c1
> 100 µM

And C[C@@H]1OC(O)[C@@H](F)[C@H](O)[C@@H]1O (some centres undefined) ?
> 100 µM
